test system: 786-0 renal; assay: NCI tumour cell line growth inhibition, 48 h
GI50 for assorted compounds
Value Type: GI50

1) CCOC(=O)Nc1nc2ccc(OCC)cc2s1 : > 100 µM
2) O=C1NNC(=O)c2ccccc2SSc2ccccc2C(=O)NNC(=O)c2ccccc2SSc2ccccc21 : 10 µM
3) CCOc1ccccc1-n1c(CN2CCN(C(=O)COc3ccc(CNCCCCCCN4C5CCCC4CC(OC(=O)Nc4cc(C)ccc4OC)C5)cc3)CC2)nc2ccccc2c1=O (configuration not stated) : 1.58 µM
4) CCc1ccc2c(c1)C(=O)c1c-2n(CCCBr)c(=O)c2cc([N+](=O)[O-])ccc12 : 23.4 µM
5) Cc1cc2nc(C(Cl)Cl)nc(-c3ccc(Cl)cc3)n2n1 : 4.93 µM
6) CNC(=O)c1ccccc1Nc1nc(Nc2ccc(N3CCOCC3)cc2OC)ncc1Cl : 1.03 µM
7) CCCCCCCC(=O)SCC/C=C/[C@@H]1CC(=O)NCc2cccc(n2)C2=N[C@@](C)(CS2)C(=O)N[C@@H](C(C)C)C(=O)N1 : 5.52 µM
8) COc1cc2nc(-c3ccc(C(F)(F)F)cc3)cc(OCCCN3CCC(O)CC3)c2cc1OC : 4.72 µM
9) O=C(CCl)N1c2ccccc2Oc2ccc3ccccc3c21 : 2.05 µM
10) CNC(=O)c1cc(Oc2ccc3nc(NC(=O)Nc4ccc(Cl)c(C(F)(F)F)c4)sc3c2)ccn1 : 1.79 µM
11) C=C(CNCCO)[C@@H]1CC[C@]2(CO)CC[C@]3(C)[C@H](CC[C@@H]4[C@@]5(C)CCC(N)C(C)(C)[C@@H]5CC[C@]43C)[C@@H]12 (some centres not stated) : 1.63 µM
12) O=C(NCCNc1nccc(-c2c(-c3cccc(O)c3)nc3sccn23)n1)c1ccccc1O : 6.25 µM
